Target: Menin (Homo sapiens) (UniProt O00255)
Sequence (O00255 whole entry, looked up): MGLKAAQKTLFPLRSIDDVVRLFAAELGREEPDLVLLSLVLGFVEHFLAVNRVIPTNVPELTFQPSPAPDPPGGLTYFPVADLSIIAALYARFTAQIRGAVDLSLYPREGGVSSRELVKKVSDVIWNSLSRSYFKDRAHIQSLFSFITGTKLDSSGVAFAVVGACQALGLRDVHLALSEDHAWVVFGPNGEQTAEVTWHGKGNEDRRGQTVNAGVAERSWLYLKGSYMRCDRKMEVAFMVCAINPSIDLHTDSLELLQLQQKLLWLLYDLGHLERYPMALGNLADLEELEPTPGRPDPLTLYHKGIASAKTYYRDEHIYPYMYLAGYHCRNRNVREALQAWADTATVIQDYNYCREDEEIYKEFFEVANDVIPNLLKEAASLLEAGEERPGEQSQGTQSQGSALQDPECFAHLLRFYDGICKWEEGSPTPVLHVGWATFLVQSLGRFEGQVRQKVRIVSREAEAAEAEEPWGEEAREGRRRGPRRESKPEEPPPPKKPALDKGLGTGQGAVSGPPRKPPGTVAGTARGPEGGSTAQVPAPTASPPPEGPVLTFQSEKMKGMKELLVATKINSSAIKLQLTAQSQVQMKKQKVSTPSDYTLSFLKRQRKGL
Experiment: qHTS Assay for Inhibitors Targeting the Menin-MLL Interaction in MLL Related Leukemias: Competition With Texas Red Labeled MLL-derived Mutant Peptide
Conditions: fluorescence polarization; series mostly up to 61.6 µM
The whole screen tested about 270,000 compounds, of which about 620 (0.23%) were called active. Another 12% or so got no clear call; they are omitted. Calls follow the shape of the dose curve; as a rule, active = well fitted inhibition curve with a large enough effect in the polarisation, with a control signal flat (not every such curve was filed as active); inconclusive = small, poorly fitted or top-dose-only effect, or effect the other way, or a change in a side signal; inactive = no such curve, though single readings can be large or run the other way; the % refers to the polarisation. Many of the other results were omitted from the sample, so actives are more common in it than they were.
Classes used: active, inactive

Molecule: Cc1cccn2c(=O)c(/C=C3\SC(=S)N(CC(C)C)C3=O)c(NCCCOC(C)C)nc12
Label value: active

Molecule: CNc1nc2c(C)cccn2c(=O)c1C=Nc1ccc(OC)cc1
Label value: inactive

Molecule: Cc1nc2ccc(C(=O)N(C)CC3CCCN(CCc4ccc(Cl)cc4)C3)cc2[nH]1 (stereo not given)
Label value: inactive

Molecule: COc1cccc(N2C(=O)CN(Cc3ccccc3)C2=S)c1
Label value: inactive

Molecule: Cc1ccc(C(=O)NC23CC4CC(CC(C4)C2)C3)c(Cl)c1
Label value: inactive

Molecule: CCCCNC(=O)c1cn(CC)c2cc(N3CCN(C(=O)c4ccco4)CC3)c(F)cc2c1=O
Label value: inactive

Molecule: CCn1c(=N)c(C(=O)NCCCOC)cc2c(=O)n3cccc(C)c3nc21
Label value: inactive

Molecule: Cc1nc2ccccc2c(=O)n1Cc1ccc([N+](=O)[O-])cc1
Label value: inactive

Molecule: CCOc1cc(/C=C/c2nc3ccccc3c(=O)[nH]2)cc(Br)c1OC
Label value: inactive

Molecule: NC(=O)c1ccc(Nc2ccc3c(c2)CCC3)c([N+](=O)[O-])c1
Label value: inactive
